# System: SW-620 colon
# experimental-protocol: NCI tumour cell line growth inhibition, 48 h
This listing pairs molecules with measured TGI.

Would you please look over these solved cases?
INSERT INTO assay_data (molecule, system_name, measured_metric, result) VALUES
  ('COC[C@@H](N=CN1CCc2cc(OC)c(OC)cc2[C@@H]1C)C(C)(C)C', 'SW-620 colon', 'TGI', '> 100 µM'),
  ('O=C1CCC2(CCO1)OCCO2', 'SW-620 colon', 'TGI', '> 100 µM'),
  ('O=C(/C(=C\C(=O)c1cccs1)c1ccsc1)c1ccc(Br)cc1', 'SW-620 colon', 'TGI', '> 100 µM'),
  ('CCc1c(Cc2cccc3ccccc23)n2c(nc1=O)SCC2OCCO (configuration not stated)', 'SW-620 colon', 'TGI', '> 100 µM'),
  ('Cc1nc2c3c(ncn2n1)Oc1c(c(-c2ccccc2)nn1-c1ccccc1)C3c1ccc(Cl)cc1 (configuration not stated)', 'SW-620 colon', 'TGI', '> 100 µM');

Then there is this molecule:
Which TGI value is on record for O=C([CH-]C(=O)c1ccccc1)c1ccccc1.O=C([CH-]C(=O)c1ccccc1)c1ccccc1.O=C([CH-]C(=O)c1ccccc1)c1ccccc1.[Nd+3].[OH3+] ? 26.4 µM
